// data source = ChEMBL document CHEMBL2176870

- PROCEDURE_TEXT: AUC (0 to infinity) in Sprague-Dawley rat heart at 2 x 50 mg/kg, iv
- Assay type: ADME, organism-based
- Set-up: time infinity, dose 50 mg/kg, route intravenous
MEASURED_PROPERTY: AUC(0-inf) (ng·h/mL)
Note: unit ng·h/mL is implicit; provide only the numeric part.

What value of AUC(0-inf) has been reported for the following compound? `CCc1cc(O)c(Oc2ccc(C(N)=O)cc2F)cc1F`
23900

---

- PROCEDURE_TEXT: Cmax in Sprague-Dawley rat lung at 2 x 50 mg/kg, iv
- Type: ADME, organism-based
- Set-up: dose 50 mg/kg, route intravenous
MEASURED_PROPERTY: Cmax
Remember to follow the number with its unit.

Reported Cmax for `CCc1cc(O)c(Oc2ccc(C(N)=O)cc2F)cc1F` : what is it?
28900 ng/g

---

- PROCEDURE_TEXT: Cmax in Sprague-Dawley rat brain at 2 x 50 mg/kg, iv
- Type: ADME, organism-based
- Set-up: dose 50 mg/kg, route intravenous
MEASURED_PROPERTY: Cmax (ng/g)
Kindly provide the numeric value in ng/g only, without the unit symbol.

I would be grateful if you could share the reported Cmax for `CCc1cc(O)c(Oc2ccc(C(N)=O)cc2F)cc1F` .
37800

---

- PROCEDURE_TEXT: AUC (0 to infinity) in Sprague-Dawley rat lung at 2 x 50 mg/kg, iv
- Format: ADME, organism-based
- Parameters: time infinity, dose 50 mg/kg, route intravenous
MEASURED_PROPERTY: AUC(0-inf) (ng·h/mL)
Field format: number, assumed ng·h/mL, no unit text.

Would you kindly share the measured AUC(0-inf) for `CCc1cc(O)c(Oc2ccc(C(N)=O)cc2F)cc1F` ?
18400

---

- PROCEDURE_TEXT: Toxicity in iv dosed dog administered bid for 2 weeks
- Type: organism-based, Canis lupus familiaris
- TEST_CONTEXT: in vivo
MEASURED_PROPERTY: NOAEL at 336 h
The reply must contain the numeric value and, after it, the unit.

Bench note: what NOAEL at 336 h did `CCc1cc(O)c(Oc2ccc(C(N)=O)cc2F)cc1F` show?
100 mg/kg/day

---

- PROCEDURE_TEXT: Cytotoxicity against human HepG2 cells
- Format: cell-based
- TEST_CONTEXT: read-out: ED50 (the source's name)
MEASURED_PROPERTY: CC50 (µg/mL)
Express the result in µg/mL but write the number alone.

Query (molecule): `CCc1cc(O)c(Oc2ccccc2)cc1F` ; field requested: CC50
16

Same question for `CCc1cc(O)c(Oc2ccc(C#N)cc2F)cc1F` please.
16

Now the molecule `CCc1ccc(Oc2ccc(C(=O)CCCO)cc2)c(O)c1`
16

Consider next the molecule `CCc1cc(O)c(Oc2ccccc2F)cc1F` in the same way.
16

What do you get for Oc1cc(Cl)ccc1Oc1ccc(Cl)cc1Cl [TRICLOSAN] ?
2

---

- PROCEDURE_TEXT: Terminal elimination half life in Sprague-Dawley rat liver at 2 x 50 mg/kg, iv
- Type: ADME, organism-based
- Design: dose 50 mg/kg, route intravenous
- TEST_CONTEXT: read-out: beta t1/2 (converted)
MEASURED_PROPERTY: half-life
A complete answer gives the number and then names the unit.

# query: half-life of entry `CCc1cc(O)c(Oc2ccc(C(N)=O)cc2F)cc1F`
9.2 h
